Target: T1, orthogonal hCD122 receptor (hoRb), hCD122 with H133D and Y134F (human, UniProt P14784 27-550)
T1 sequence: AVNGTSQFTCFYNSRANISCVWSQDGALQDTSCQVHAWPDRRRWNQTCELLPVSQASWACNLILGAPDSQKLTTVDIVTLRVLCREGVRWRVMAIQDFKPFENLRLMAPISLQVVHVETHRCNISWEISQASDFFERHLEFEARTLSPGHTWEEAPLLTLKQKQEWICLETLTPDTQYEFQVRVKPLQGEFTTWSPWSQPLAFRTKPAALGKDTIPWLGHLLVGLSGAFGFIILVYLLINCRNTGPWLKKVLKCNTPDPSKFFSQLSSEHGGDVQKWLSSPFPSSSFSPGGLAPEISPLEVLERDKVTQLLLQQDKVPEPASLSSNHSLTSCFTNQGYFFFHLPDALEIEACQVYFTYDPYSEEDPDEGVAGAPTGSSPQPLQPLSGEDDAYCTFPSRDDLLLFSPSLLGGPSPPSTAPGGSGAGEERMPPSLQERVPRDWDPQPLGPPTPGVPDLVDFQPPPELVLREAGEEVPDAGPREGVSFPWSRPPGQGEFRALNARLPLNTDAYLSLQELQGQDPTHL
Test: cell-based or functional assay
MEASURED QUANTITY: 3F8 Ortho Proliferation Signal 1:2 (cts/min)

Past entries and their recorded results:
1. SQVLHA (ligand) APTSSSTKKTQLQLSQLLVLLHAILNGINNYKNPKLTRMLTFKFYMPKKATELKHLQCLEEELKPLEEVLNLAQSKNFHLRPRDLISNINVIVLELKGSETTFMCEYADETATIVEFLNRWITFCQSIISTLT = 32600
2. SQVLKV (ligand) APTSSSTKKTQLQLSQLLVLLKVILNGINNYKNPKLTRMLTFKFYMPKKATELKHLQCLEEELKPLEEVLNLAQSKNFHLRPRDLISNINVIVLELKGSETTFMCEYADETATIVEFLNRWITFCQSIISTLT = 45300

[I] ΔT3, SQVLKA (ligand) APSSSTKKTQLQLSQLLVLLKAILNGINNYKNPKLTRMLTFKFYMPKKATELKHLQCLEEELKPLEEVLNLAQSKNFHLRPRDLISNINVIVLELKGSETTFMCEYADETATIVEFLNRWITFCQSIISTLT
[II] L18E, SQVLKA (ligand) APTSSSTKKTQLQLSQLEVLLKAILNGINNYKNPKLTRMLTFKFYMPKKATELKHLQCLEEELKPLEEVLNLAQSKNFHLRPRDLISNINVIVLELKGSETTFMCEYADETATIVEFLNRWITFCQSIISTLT
Task for the reader: decide whether I or II has the larger 3F8 Ortho Proliferation Signal 1:2. Pick one; state its label.
I
